Let's look at some variants and their measured protein stability index.
B1: SOAT2 (parent)
chain: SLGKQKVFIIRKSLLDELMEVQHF

variants of: B1; test: protein stability index of a GFP-peptide fusion (GPS, HEK-293T) (PSI 1-6); higher = more stable; conditions: c terminus: a fixed tail appended;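 note: lentivirally expressed fusions sorted by FACS into six bins by GFP to DsRed ratio, PSI derived from sequencing read proportions per bin multiplied by bin number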
Readout Label: protein stability index

K6F ... 2.71
K6C ... 3.68
L15E ... 2.29
F24Q ... 2.75
K4V ... 2.8
I10D ... 2.41
Q5E ... 2.04
Q5L ... 3.31
E20Q ... 1.62
S13Q ... 1.69
I10H ... 1.65
E17V ... 3.36
Q22P ... 1.79
L2Q ... 2.21
L15M ... 2.37
G3H ... 3.41
K4T ... 2.4
Q5I ... 2.44
K4N ... 1.78
K12P ... 1.62
M19D ... 2.24
K6H ... 1.97
R11F ... 1.78
Q22V ... 1.49
R11K ... 1.77
V7T ... 2.16
V21C ... 3.18
V21Y ... 2.38
F8H ... 1.71
H23Y ... 2.64
V7I ... 3.05
F8T ... 1.32
L14H ... 2.86
H23Q ... 2.31
Q22C ... 2.01
F24T ... 1.8
Q22D ... 1.91
K6G ... 1.99
L14I ... 3.27
K6M ... 3.33
Q22W ... 2.77
V7M ... 1.82
F24H ... 1.36
S13E ... 2.55
I10P ... 2.08
I9T ... 1.84
V21W ... 2.46
M19A ... 3.02
I9D ... 2.18
S1E ... 2.99
R11E ... 2.99
I10K ... 1.48
Q5M ... 3.06
L14K ... 1.69
M19L ... 2.67
E17A ... 3.06
V7G ... 1.82
F8P ... 1.66
D16C ... 2.63
I10W ... 1.89
S13C ... 2.25
Q22G ... 3.24
I9V ... 2.84
K12R ... 2.75
Q5C ... 2.75
F8I ... 2.15
M19Q ... 2.25
K4F ... 2.22
D16I ... 2.98
L14Q ... 1.64
E17W ... 3.08
R11S ... 2.11
K12L ... 2.18
F8A ... 1.76
E17I ... 2.86
I9S ... 2.15
S1F ... 1.92
V7D ... 1.48
I10Q ... 1.87
F8Y ... 3.07
L18N ... 2.54
G3L ... 2.29
I10F ... 3.02
R11M ... 1.53
M19C ... 2.15
I9N ... 2.02
L14S ... 3.11
H23K ... 1.41
S13K ... 1.67
F8W ... 2.79
I10M ... 3.04

Attribution: the supplement of paper PMC10567573
